# tgt: T1, CRD3-4
# T1 construct: also called fragmented human CD137-Fc fusion protein CRD3-4
# procedureDetails: ELISA, coated CD137-Fc protein 2 µg/mL, antibody 10 or 5 µg/mL; absorbance 620 nm divided by that of the uncoated well
Reported Ratio with respect to Non-Coating values are given for each entry in this list.
Give a plain numeric answer without units written out.

input: Give me measured Ratio with respect to Non-Coating, please, for this binder: R3 (antibody, V domains shown, Naive library clone; Fab on phage in the phage ELISA) VH: EVQLVQSGAEVKKPGASVKVSCKASGYTFTSYYTHWVRQAPGQGLEWMGIINPSGGSTSYAQKFQGRVTMTRDTSTSTVYMELSSLRSEDTAVYYCARGAPEYSSSSDYWGQGTMVTVSS VL: QSALTQPASVSGSPGQSITISCTGTSSDVGGYNFVSWYQQHPGKAPKLMIYDVSKRPSGVSTRFSGSKSGNTASLTISGLQAEDEADYYCNSYTTSSTRWMFGGGTKVTVL
output: 1.3
